Value source: patent US10053468B2

- assay system: UniProt:P51449
- Sequence (P51449 1-497 isoform P51449-2, species assumed): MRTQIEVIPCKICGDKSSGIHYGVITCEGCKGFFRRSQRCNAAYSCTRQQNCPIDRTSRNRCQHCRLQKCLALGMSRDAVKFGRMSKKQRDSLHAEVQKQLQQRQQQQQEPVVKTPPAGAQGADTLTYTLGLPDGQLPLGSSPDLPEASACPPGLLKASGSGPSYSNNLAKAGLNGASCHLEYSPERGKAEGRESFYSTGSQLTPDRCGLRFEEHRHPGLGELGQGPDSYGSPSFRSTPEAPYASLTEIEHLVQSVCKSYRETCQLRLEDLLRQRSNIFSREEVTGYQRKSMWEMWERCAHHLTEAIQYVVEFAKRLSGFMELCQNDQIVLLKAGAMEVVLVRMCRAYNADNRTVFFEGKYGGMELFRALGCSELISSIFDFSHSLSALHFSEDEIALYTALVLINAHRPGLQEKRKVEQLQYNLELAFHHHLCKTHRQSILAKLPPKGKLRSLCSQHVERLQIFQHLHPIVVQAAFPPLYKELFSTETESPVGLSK
- measurement description: Jurkat reporter test (human IL-17 ROR response element luciferase, RORγt vector)
- Format: cell-based
- test conditions: test compound 3 μM, Jurkat cells; read-out: Luminescence level inhibitory rate at test compound 3 μM (%)
measured endpoint: inhibition at 3 µM (%)

>>> print(df.to_string())
                                    compound   val
 0  CCOc1ccc2c(c1)CCN(C(=O)CCCC(=O)O)[C@H]2C(=O)Nc1cc(F)c(C(C)(C)COCC(F)F)c(F)c1    97
 1  COc1ccc2c(c1)CCN(C(=O)c1cc(O)no1)[C@H]2C(=O)Nc1cc(F)c(C(C)(C)COCC(F)F)c(F)c1    98
 2  CCOCC(C)(C)c1c(F)cc(NC(=O)[C@H]2c3ccc(OC)cc3CCN2C(=O)c2cc(O)no2)cc1F    96
 3  COc1ccc2c(n1)CCN(C(=O)Cc1cc(O)no1)[C@H]2C(=O)Nc1cc(F)c2c(c1)CCC2(C)C   101
 4  COc1ccc2c(c1)CCN(C(=O)c1cc(O)no1)[C@H]2C(=O)Nc1ccc(C(C)(C)C)c(F)c1   101
 5  COc1ccc2c(c1)CCN(C(=O)CC#N)[C@H]2C(=O)Nc1cc(F)c(C(C)(C)C)c(F)c1   100
 6  COc1ccc2c(c1)CCN(C(=O)c1cc(O)no1)[C@H]2C(=O)Nc1ccc(C(C)(C)COCC(F)F)c(F)c1    96
 7  COc1ccc2c(c1)CCN(C(=O)[C@H]1CNC(=O)C1)[C@H]2C(=O)Nc1ccc(C(C)(C)C)c(F)c1   102
 8  COc1ccc2c(c1)CCN(C(=O)CC(F)(F)F)[C@H]2C(=O)Nc1cc(F)c(C(C)(C)C(=O)N2CCCC2)c(F)c1   102
 9  CC1(C)CCc2cc(NC(=O)[C@H]3c4ccc5c(c4CCN3C(=O)CCCC(=O)O)OCO5)cc(F)c21    83
10  CCOc1ccc2c(c1)CCN(C(=O)Cc1cc(O)no1)[C@H]2C(=O)Nc1cc(F)c2c(c1)CCC2(C)C  99.5
11  CCOC(=O)C(C)(C)c1ccc(NC(=O)C2c3ccc(OC)cc3CCN2C(=O)c2cc(O)no2)cc1F (centres unmarked)  98.6
12  CCOc1ccc2c(c1)CCN(C(=O)Cc1cc(O)no1)[C@H]2C(=O)Nc1cc(F)c(C(C)(C)COC)c(F)c1   101
13  COc1ccc2c(c1)CCN(C(=O)CCc1cc(O)no1)[C@H]2C(=O)Nc1cc(F)c2c(c1)CCC2(C)C  99.9
